System: OVCAR-4
assay: NCI tumour cell line growth inhibition, 48 h
Active and inactive are the calls of the source. Rule as the data show it: active = GI50 up to about 1.1 µM and inactive = higher.
# GI50 per entry

Here are 8 molecules together with their reported answers.
molecule: O=C1C(=O)N(c2ccc(Cl)cc2Cl)C(=O)C(=O)C1c1nc2ccccc2o1
result: > 100 µM (inactive)
//
molecule: COc1ccc(NC(=S)N/N=C2\C(=O)Nc3ccccc32)cc1
result: 9.77 µM (inactive)
//
molecule: CC(C)(C)OC(=O)NC(Cc1ccccc1)C(=S)N1CCCC1 (centres undefined)
result: 86.3 µM (inactive)
//
molecule: CC(=O)c1ccc2c(c1)CC1(C2)Cc2cc3c(cc2C1)C(=O)CC3 (centres undefined)
result: 2.55 µM (inactive)
//
molecule: C[C@@H](C[C@@H](O)[C@H](O)C(C)(C)O)[C@H]1CC=C2[C@]3(C)[C@H](O)C[C@H]4C(C)(C)[C@H](O)CC[C@]4(C)[C@H]3CC[C@@]21C
result: 14.4 µM (inactive)
//
molecule: O=[N+]([O-])c1ccc(C(c2c[nH]c3ccccc23)c2c[nH]c3ccccc23)cc1
result: 12 µM (inactive)
//
molecule: COc1ccc(/C=C2\C(=O)N(NC(C)=O)c3ccccc32)cc1
result: > 100 µM (inactive)
//
molecule: O/N=N/c1ccc([SH2]c2ccc3ccccc3c2)cn1
result: > 100 µM (inactive)

Now for a further molecule.
Input line: Fill in GI50 for record CN(Cc1ccccc1)/C(=N\C#N)N(Cc1ccccc1)Cc1ccccc1
Output line: 24.4 µM (inactive)

Just for reference, ChEMBL document CHEMBL1201862 is where these values come from.
